Property: pIC50; scope: individual compounds
biological target: butyrylcholinesterase (BChE) (Homo sapiens, UniProt P06276); construct: purchased Sigma-Aldrich (Steinheim, Germany); assay: Butyrylcholinesterase inhibition in vitro; format: biochemical; conditions: IC50 BChE, assayed at 100-0.1 µg/mL; mean ± S.D.
Sequence (P06276 29-602): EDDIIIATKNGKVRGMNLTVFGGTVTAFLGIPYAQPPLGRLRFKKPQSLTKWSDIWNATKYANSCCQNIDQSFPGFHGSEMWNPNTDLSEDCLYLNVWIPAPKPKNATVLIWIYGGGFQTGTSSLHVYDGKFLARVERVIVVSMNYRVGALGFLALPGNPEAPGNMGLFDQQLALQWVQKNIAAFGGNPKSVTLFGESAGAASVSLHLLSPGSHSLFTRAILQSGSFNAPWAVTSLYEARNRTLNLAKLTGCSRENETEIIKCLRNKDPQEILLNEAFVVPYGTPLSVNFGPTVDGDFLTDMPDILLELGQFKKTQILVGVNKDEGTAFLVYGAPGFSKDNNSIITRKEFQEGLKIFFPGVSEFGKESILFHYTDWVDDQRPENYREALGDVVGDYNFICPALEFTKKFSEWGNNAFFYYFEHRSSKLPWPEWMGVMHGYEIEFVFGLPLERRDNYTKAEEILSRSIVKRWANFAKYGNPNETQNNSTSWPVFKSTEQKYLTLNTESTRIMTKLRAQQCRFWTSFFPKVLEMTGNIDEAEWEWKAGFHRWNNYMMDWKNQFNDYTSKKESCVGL
pIC50: −log10 of the molar value. Counter-ions that a name gives are not always drawn.
Measure: pIC50

{"columns": ["Compound", "Test Value"],
 "data": [
  ["CC(C)c1cc2c(c(O)c1O)[C@@]1(C(=O)O)CCCC(C)(C)[C@@H]1CC2", 4.91],
  ["O=C(O)C(O)Cc1ccc(O)c(O)c1 (centres unmarked) [Compound 11, Danshensu Salt]", 3.91],
  ["O=C(/C=C/c1ccc(O)c2c1[C@H](C(=O)O[C@H](Cc1ccc(O)c(O)c1)C(=O)O)[C@@H](c1ccc(O)c(O)c1)O2)O[C@H](Cc1ccc(O)c(O)c1)C(=O)O", 4.84],
  ["O=C(/C=C/c1ccc(O)c(O)c1)O[C@H](Cc1ccc(O)c(O)c1)C(=O)O", 4.45],
  ["C[C@H]1COC2=C1C(=O)C(=O)c1c2ccc2c1CCCC2(C)C", 4.02],
  ["Cc1cccc2c3c(ccc12)C1=C(C(=O)C3=O)[C@@H](C)CO1 [Compound 6, Dihydrotanshinone I]", 5.75],
  ["O=C(/C=C/c1ccc(O)c(O)c1/C=C/c1ccc(O)c(O)c1)O[C@H](Cc1ccc(O)c(O)c1)C(=O)O", 4.01],
  ["Cc1coc2c1C(=O)C(=O)c1c-2ccc2c(C)cccc12", 4.00]
]}

Data credit: paper PMC7667546
